- measurement-target: human dopamine D2L receptors (long isoform) (Homo sapiens, UniProt P14416)
- Sequence (P14416 whole entry, canonical isoform): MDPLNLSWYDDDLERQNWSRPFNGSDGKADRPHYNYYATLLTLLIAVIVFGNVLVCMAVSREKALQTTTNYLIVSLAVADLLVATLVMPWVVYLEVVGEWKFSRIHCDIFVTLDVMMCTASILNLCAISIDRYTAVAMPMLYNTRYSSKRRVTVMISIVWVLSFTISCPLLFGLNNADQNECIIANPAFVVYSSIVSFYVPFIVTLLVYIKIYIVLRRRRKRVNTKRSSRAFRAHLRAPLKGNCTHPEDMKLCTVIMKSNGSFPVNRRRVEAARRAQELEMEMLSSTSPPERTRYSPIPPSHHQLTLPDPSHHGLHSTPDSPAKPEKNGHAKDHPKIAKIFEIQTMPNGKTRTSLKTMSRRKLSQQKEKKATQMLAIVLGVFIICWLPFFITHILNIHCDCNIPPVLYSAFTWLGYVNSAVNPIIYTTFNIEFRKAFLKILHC
- experimental-protocol: Dopamine D2L receptor binding, [125I]iodospiperone displacement, HEK-293 membranes
- condition-set: receptor binding constant; membranes of HEK-293 cells, 0.01 nM [125I]iodospiperone, 25° C., 60 minutes; read-out: Ki(D2)*
pKi: −log10 of the molar value.
measured-parameter: pKi

Please review the entries below; each comes with its answer.
{"compound": "CCCN1C[C@@H]2C[C@@H](c3ccc(NS(=O)(=O)c4ccc(C(C)C)cc4)cc3)[C@@H]2C1", "measurement-target": "human dopamine D2L receptors (long isoform) (Homo sapiens, UniProt P14416)", "measured-parameter": "pKi", "reported-measurement": 7.89}
{"compound": "CCCN1C[C@@H]2C[C@@H](c3ccc(NS(=O)(=O)c4ccc(SC(F)(F)F)cc4)cc3)[C@@H]2C1", "measurement-target": "human dopamine D2L receptors (long isoform) (Homo sapiens, UniProt P14416)", "measured-parameter": "pKi", "reported-measurement": 7.52}
{"compound": "C=CCN1C[C@@H]2C[C@@H](c3ccc(NS(=O)(=O)c4ccc(OC(F)(F)F)cc4)cc3)[C@@H]2C1", "measurement-target": "human dopamine D2L receptors (long isoform) (Homo sapiens, UniProt P14416)", "measured-parameter": "pKi", "reported-measurement": 7.33}
{"compound": "CCCN1C[C@@H]2C[C@@H](c3ccc(NS(=O)(=O)c4ccc(N5CCC5)cc4)cc3)[C@@H]2C1", "measurement-target": "human dopamine D2L receptors (long isoform) (Homo sapiens, UniProt P14416)", "measured-parameter": "pKi", "reported-measurement": 7.25}
{"compound": "CCCN1C[C@@H]2C[C@@H](c3ccc(NS(=O)(=O)c4ccc(N5CCC[C@@H]5COC)cc4)cc3)[C@@H]2C1", "measurement-target": "human dopamine D2L receptors (long isoform) (Homo sapiens, UniProt P14416)", "measured-parameter": "pKi", "reported-measurement": 7.26}

a. CCCN1C[C@@H]2C[C@@H](c3ccc(NS(=O)(=O)c4ccc(OC(F)(F)F)cc4)cc3)[C@@H]2C1
b. CCCN1C[C@@H]2C[C@@H](c3ccc(NS(=O)(=O)c4ccc(N5CCCC5)cc4)cc3)[C@@H]2C1
c. CCCN1C[C@H]2C[C@@H](c3ccc(NS(=O)(=O)c4ccc(C(C)C)cc4)cc3)[C@H]2C1 (relative stereo)
d. CCCN1C[C@@H]2C[C@@H](c3ccc(NS(=O)(=O)c4ccc(-c5cccs5)cc4)cc3)[C@@H]2C1
Order field: pKi | Direction: descending (largest first) List labels; respect the requested ordering.
d, b, a, c
(d: 7.88, b: 7.49, a: 7.18, c: 6.68)

a. CCCN1C[C@@H]2C[C@@H](c3ccc(NS(=O)(=O)c4ccc(C(F)(F)F)cc4)cc3)[C@@H]2C1
b. CCCN1C[C@@H]2C[C@@H](c3ccc(NS(=O)(=O)c4ccc(Br)cc4)cc3)[C@@H]2C1
Kindly identify which of a and b has the larger recorded pKi value. When you have decided, please share the label of that item.
b
(b: 7.50, a: 7.14)

Values compiled from patent US7834048B2.
